# Assay Notes: yeast display, Sf9 membrane polyspecificity reagent, FACS + sequencing; frameworks hold sequencing errors
Endpoint: polyreactivity (PSR sort gate)

| Residue Codes | Endpoint | Reported Measurement |
| --- | --- | --- |
| QVQLVESGEGLVQAGGSLRLSCAASGITFFRNTMGWYRHAPGKERELVAAISKSGDNTYYADSVKVRFTISRDNAKNTVYLQMNSLKPEDTAVYYCNKAYRKFYYGYDYWGQGTQVTVSS | polyreactivity (PSR sort gate) | high polyreactivity |
| QVQLVESGGGLVQAGGSLRLSCAASGFTNAYYAMGWYRQAPGKEREFVASITSGGSTYYADSVKGRFTISRDNAKNTVYLQMNSLKPEDTAVYYCAARSPFYSYTPGYEYWGQGTQVTVSS | polyreactivity (PSR sort gate) | high polyreactivity |
